test system: LPS-induced TNF-α release in peripheral blood mononuclear cells (PBMCs); experiment: In vitro determination of PDE4 inhibitory activity in the PBMCs assay (LPS-induced TNF-α release); format: cell-based, human; conditions: PBMC; human PBMCs, LPS 3 ng/ml, 18 hours, TNF-α by ELISA; read-out: PDE4 inhibition (IC50, 50% inhibition of LPS-induced TNF-α release)
pIC50: −log10 of the molar value.
reported-endpoint: pIC50

QUERY: Give pIC50 only, for Cn1ccnc1S(=O)(=O)N1CCSC1C(=O)O[C@@H](Cc1c(Cl)c[n+]([O-])cc1Cl)c1ccc(OC(F)F)c(OCC2CC2)c1 (some centres unmarked) , using LPS-induced TNF-α release in peripheral blood mononuclear cells (PBMCs) data.
RESULT: > 10.00

QUERY: Give pIC50 only, for "COc1ccc([C@H](Cc2c(Cl)c[n+]([O-])cc2Cl)OC(=O)[C@@H]2CCCN2S(=O)(=O)c2cccc(C(=O)N(C)C)c2)cc1OC" , using LPS-induced TNF-α release in peripheral blood mononuclear cells (PBMCs) data.
RESULT: > 10.00

QUERY: Give pIC50 only, for "Cc1noc2ncc(S(=O)(=O)N3CSC[C@H]3C(=O)O[C@@H](Cc3c(Cl)c[n+]([O-])cc3Cl)c3ccc(OC(F)F)c(OCC4CC4)c3)cc12" , using LPS-induced TNF-α release in peripheral blood mononuclear cells (PBMCs) data.
RESULT: 9.00 to 10.00

QUERY: Give pIC50 only, for O=C(O[C@@H](Cc1c(Cl)c[n+]([O-])cc1Cl)c1ccc(OC(F)F)c(OCC2CC2)c1)C1SCCN1S(=O)(=O)c1cccs1 (some centres unmarked) , using LPS-induced TNF-α release in peripheral blood mononuclear cells (PBMCs) data.
RESULT: 9.00 to 10.00

QUERY: Give pIC50 only, for Cc1cc(F)ccc1S(=O)(=O)N1CCSC1C(=O)O[C@@H](Cc1c(Cl)c[n+]([O-])cc1Cl)c1ccc(OC(F)F)c(OCC2CC2)c1 (some centres unmarked) , using LPS-induced TNF-α release in peripheral blood mononuclear cells (PBMCs) data.
RESULT: 9.00 to 10.00

QUERY: Give pIC50 only, for Nc1ccc(S(=O)(=O)N2CCSC2C(=O)O[C@@H](Cc2c(Cl)c[n+]([O-])cc2Cl)c2ccc(OC(F)F)c(OCC3CC3)c2)cc1 (some centres unmarked) , using LPS-induced TNF-α release in peripheral blood mononuclear cells (PBMCs) data.
RESULT: 9.00 to 10.00

QUERY: Give pIC50 only, for CN(C)Cc1cccc(C(=O)N2CCSC2C(=O)O[C@@H](Cc2c(Cl)c[n+]([O-])cc2Cl)c2ccc(OC(F)F)c(OCC3CC3)c2)c1 (some centres unmarked) , using LPS-induced TNF-α release in peripheral blood mononuclear cells (PBMCs) data.
RESULT: 9.00 to 10.00

QUERY: Give pIC50 only, for "CN1C(=O)Cc2cc(S(=O)(=O)N3CCS[C@H]3C(=O)O[C@@H](Cc3c(Cl)c[n+]([O-])cc3Cl)c3ccc(OC(F)F)c(OCC4CC4)c3)ccc21" , using LPS-induced TNF-α release in peripheral blood mononuclear cells (PBMCs) data.
RESULT: > 10.00

QUERY: Give pIC50 only, for "O=C(O[C@@H](Cc1c(Cl)c[n+]([O-])cc1Cl)c1ccc(OC(F)F)c(OCC2CC2)c1)[C@@H]1CCCN1S(=O)(=O)c1ccccc1" , using LPS-induced TNF-α release in peripheral blood mononuclear cells (PBMCs) data.
RESULT: 9.00 to 10.00

QUERY: Give pIC50 only, for CS(=O)(=O)Nc1ccc(S(=O)(=O)N2CCSC2C(=O)O[C@@H](Cc2c(Cl)c[n+]([O-])cc2Cl)c2ccc(OC(F)F)c(OCC3CC3)c2)cc1 (some centres unmarked) , using LPS-induced TNF-α release in peripheral blood mononuclear cells (PBMCs) data.
RESULT: 9.00 to 10.00

QUERY: Give pIC50 only, for "CN(C)S(=O)(=O)c1cccc(S(=O)(=O)N2CCS[C@H]2C(=O)O[C@@H](Cc2c(Cl)c[n+]([O-])cc2Cl)c2ccc(OC(F)F)c(OCC3CC3)c2)c1" , using LPS-induced TNF-α release in peripheral blood mononuclear cells (PBMCs) data.
RESULT: > 10.00

QUERY: Give pIC50 only, for "CN1CCN(C(=O)c2cccc(S(=O)(=O)N3CCS[C@H]3C(=O)O[C@@H](Cc3c(Cl)c[n+]([O-])cc3Cl)c3ccc(OC(F)F)c(OCC4CC4)c3)c2)CC1" , using LPS-induced TNF-α release in peripheral blood mononuclear cells (PBMCs) data.
RESULT: > 10.00

QUERY: Give pIC50 only, for "CNC(=O)c1cc(S(=O)(=O)N2CCS[C@H]2C(=O)O[C@@H](Cc2c(Cl)c[n+]([O-])cc2Cl)c2ccc(OC(F)F)c(OCC3CC3)c2)cn1C" , using LPS-induced TNF-α release in peripheral blood mononuclear cells (PBMCs) data.
RESULT: > 10.00

QUERY: Give pIC50 only, for "COc1ccc(S(=O)(=O)N2CCS[C@H]2C(=O)O[C@@H](Cc2c(Cl)c[n+]([O-])cc2Cl)c2ccc(OC(F)F)c(OCC3CC3)c2)cc1OC" , using LPS-induced TNF-α release in peripheral blood mononuclear cells (PBMCs) data.
RESULT: > 10.00

QUERY: Give pIC50 only, for "O=C(O[C@@H](Cc1c(Cl)c[n+]([O-])cc1Cl)c1ccc(OC(F)F)c(OCC2CC2)c1)[C@H]1CCCN1S(=O)(=O)c1ccccc1" , using LPS-induced TNF-α release in peripheral blood mononuclear cells (PBMCs) data.
RESULT: 8.00 to 9.00

QUERY: Give pIC50 only, for "COc1ccc(OC)c(S(=O)(=O)N2CCS[C@H]2C(=O)O[C@@H](Cc2c(Cl)c[n+]([O-])cc2Cl)c2ccc(OC(F)F)c(OCC3CC3)c2)c1" , using LPS-induced TNF-α release in peripheral blood mononuclear cells (PBMCs) data.
RESULT: > 10.00

QUERY: Give pIC50 only, for "Cc1nc(C)c(S(=O)(=O)N2CCS[C@H]2C(=O)O[C@@H](Cc2c(Cl)c[n+]([O-])cc2Cl)c2ccc(OC(F)F)c(OCC3CC3)c2)s1" , using LPS-induced TNF-α release in peripheral blood mononuclear cells (PBMCs) data.
RESULT: > 10.00

QUERY: Give pIC50 only, for O=C(O[C@@H](Cc1c(Cl)c[n+]([O-])cc1Cl)c1ccc(OC(F)F)c(OCC2CC2)c1)C1SCCN1S(=O)(=O)C1CCCCC1 (some centres unmarked) , using LPS-induced TNF-α release in peripheral blood mononuclear cells (PBMCs) data.
RESULT: 8.00 to 9.00

QUERY: Give pIC50 only, for "O=C(O[C@@H](Cc1c(Cl)c[n+]([O-])cc1Cl)c1ccc(OC(F)F)c(OCC2CC2)c1)[C@@H]1CCCCN1S(=O)(=O)c1cccnc1" , using LPS-induced TNF-α release in peripheral blood mononuclear cells (PBMCs) data.
RESULT: 8.00 to 9.00

QUERY: Give pIC50 only, for Cc1noc2ncc(S(=O)(=O)N3CCSC3C(=O)O[C@@H](Cc3c(Cl)c[n+]([O-])cc3Cl)c3ccc(OC(F)F)c(OCC4CC4)c3)cc12 (stereo in doubt) , using LPS-induced TNF-α release in peripheral blood mononuclear cells (PBMCs) data.
RESULT: > 10.00

QUERY: Give pIC50 only, for O=C(CN1CCSC1C(=O)O[C@@H](Cc1c(Cl)c[n+]([O-])cc1Cl)c1ccc(OC(F)F)c(OCC2CC2)c1)c1cccs1 (some centres unmarked) , using LPS-induced TNF-α release in peripheral blood mononuclear cells (PBMCs) data.
RESULT: 9.00 to 10.00

QUERY: Give pIC50 only, for O=C(O[C@@H](Cc1c(Cl)c[n+]([O-])cc1Cl)c1ccc(OC(F)F)c(OCC2CC2)c1)C1CN(S(=O)(=O)c2ccccc2)CCO1 (some centres unmarked) , using LPS-induced TNF-α release in peripheral blood mononuclear cells (PBMCs) data.
RESULT: 9.00 to 10.00

QUERY: Give pIC50 only, for "O=C(O[C@@H](Cc1c(Cl)c[n+]([O-])cc1Cl)c1ccc(OC(F)F)c(OCC2CC2)c1)[C@@H]1SCCN1C(=O)c1ccc(CN2CCOCC2)cc1" , using LPS-induced TNF-α release in peripheral blood mononuclear cells (PBMCs) data.
RESULT: 9.00 to 10.00
